- Tgt: Sodium-dependent serotonin transporter (Homo sapiens, UniProt P31645)
- Sequence (P31645 whole entry): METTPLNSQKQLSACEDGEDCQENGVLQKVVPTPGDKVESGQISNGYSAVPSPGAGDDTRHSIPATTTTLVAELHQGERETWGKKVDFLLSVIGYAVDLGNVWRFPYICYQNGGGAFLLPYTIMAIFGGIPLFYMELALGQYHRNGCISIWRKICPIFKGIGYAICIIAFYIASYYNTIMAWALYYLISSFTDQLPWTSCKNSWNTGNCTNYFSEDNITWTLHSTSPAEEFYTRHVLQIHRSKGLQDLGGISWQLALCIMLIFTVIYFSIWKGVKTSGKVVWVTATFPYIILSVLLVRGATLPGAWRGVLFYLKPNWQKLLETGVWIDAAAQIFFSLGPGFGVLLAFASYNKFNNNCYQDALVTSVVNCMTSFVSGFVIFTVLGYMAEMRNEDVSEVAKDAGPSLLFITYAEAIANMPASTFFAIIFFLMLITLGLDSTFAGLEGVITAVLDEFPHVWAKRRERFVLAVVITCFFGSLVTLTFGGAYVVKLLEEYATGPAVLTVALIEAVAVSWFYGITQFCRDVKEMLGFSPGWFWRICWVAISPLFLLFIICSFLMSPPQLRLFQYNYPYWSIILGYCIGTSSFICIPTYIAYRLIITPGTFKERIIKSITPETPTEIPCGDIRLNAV
- Test: Displacement of [125I]RTI55 from human SERT transfected in COS1 cells
- Type: cell-based, COS-1
Metric: pKi
Entry type: numeric. Quantity: pKi, the -log10 of concentration in molar units.

O=C(OCCO)C1=C(c2ccc(Cl)c(Cl)c2)CCC1
4.30
O=C(NCc1ccco1)C1=C(c2ccc(Cl)c(Cl)c2)CCC1
4.62
CON(C)C(=O)C1=C(c2ccc(Cl)c(Cl)c2)CCC1
3.27
O=C(C1=C(c2ccc(Cl)c(Cl)c2)CCC1)N1CCCC1
3.28
O=C(OCc1cccs1)C1=C(c2ccc(Cl)c(Cl)c2)CCC1
3.04
CCN(CC)C(=O)C1=C(c2ccc(Cl)c(Cl)c2)CCC1
3.52

## Task // pKi lookup, key: `CC(C)OC(=O)C1=C(c2ccc(Cl)c(Cl)c2)CCC1`
## Result 3.30

====

- Tgt: UniProt:P23975
- Sequence (P23975 whole entry): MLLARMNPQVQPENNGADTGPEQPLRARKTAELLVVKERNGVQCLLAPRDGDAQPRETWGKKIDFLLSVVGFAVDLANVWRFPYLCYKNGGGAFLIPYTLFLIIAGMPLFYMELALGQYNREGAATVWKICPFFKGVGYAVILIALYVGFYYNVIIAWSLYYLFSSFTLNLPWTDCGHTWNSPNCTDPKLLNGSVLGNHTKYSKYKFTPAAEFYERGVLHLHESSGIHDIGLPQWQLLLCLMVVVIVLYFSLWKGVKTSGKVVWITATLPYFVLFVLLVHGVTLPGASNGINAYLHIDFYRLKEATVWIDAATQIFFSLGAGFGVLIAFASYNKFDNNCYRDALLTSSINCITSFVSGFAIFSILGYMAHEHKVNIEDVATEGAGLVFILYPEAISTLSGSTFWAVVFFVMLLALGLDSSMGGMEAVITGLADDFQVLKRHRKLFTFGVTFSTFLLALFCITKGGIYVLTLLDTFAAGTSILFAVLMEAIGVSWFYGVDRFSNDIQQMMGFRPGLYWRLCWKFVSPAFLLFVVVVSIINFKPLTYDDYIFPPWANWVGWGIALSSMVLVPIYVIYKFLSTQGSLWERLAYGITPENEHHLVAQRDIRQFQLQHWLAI
- Test: Displacement of [125I]RTI55 from human NET transfected in COS1 cells
Metric: Ki (µM)
Number only, in µM; omit the unit.

Answered examples (5):
CONC(=O)C1=C(c2ccc(Cl)c(Cl)c2)CCC1
9.2
O=C(NCc1cccs1)C1=C(c2ccc(Cl)c(Cl)c2)CCC1
18
O=C(C1=C(c2ccc(Cl)c(Cl)c2)CCC1)N1CCOCC1
300
O=C(OCCO)C1=C(c2ccc(Cl)c(Cl)c2)CCC1
9
O=C(Oc1ccccc1)C1=C(c2ccc(Cl)c(Cl)c2)CCC1
85

## Task Observed Ki on UniProt:P23975 for `CC(C)OC(=O)C1=C(c2ccc(Cl)c(Cl)c2)CCC1` , please.
## Result 26

## Task Quick one: `O=C(NC1CCC1)C1=C(c2ccc(Cl)c(Cl)c2)CCC1`
## Result 50

## Task Now try `O=C(OCc1cccs1)C1=C(c2ccc(Cl)c(Cl)c2)CCC1` .
## Result 42

## Task And what about the compound `O=C(OCC(F)(F)F)C1=C(c2ccc(Cl)c(Cl)c2)CCC1` ?
## Result 170

## Task For `CON(C)C(=O)C1=C(c2ccc(Cl)c(Cl)c2)CCC1` then?
## Result 250

## Task Now try `O=C(OCc1ccco1)C1=C(c2ccc(Cl)c(Cl)c2)CCC1` .
## Result 61

## Task Now the same for `O=C(NCc1ccco1)C1=C(c2ccc(Cl)c(Cl)c2)CCC1`
## Result 12

====

- Species on record: Homo sapiens
- Test: Selectivity for human DAT over human NET
Listed here: items and their measured Ratio Ki.
Quick one: just the number, no unit, thanks!

Observe how each entry below is paired with its result.
O=C(C1=C(c2ccc(Cl)c(Cl)c2)CCC1)N1CCOCC1
27
O=C(NC1CCC1)C1=C(c2ccc(Cl)c(Cl)c2)CCC1
5.6
O=C(OCc1ccco1)C1=C(c2ccc(Cl)c(Cl)c2)CCC1
41
O=C(Oc1ccccc1)C1=C(c2ccc(Cl)c(Cl)c2)CCC1
500
O=C(NCCF)C1=C(c2ccc(Cl)c(Cl)c2)CCC1
110
O=C(OCCF)C1=C(c2ccc(Cl)c(Cl)c2)CCC1
12
O=C(NCc1ccco1)C1=C(c2ccc(Cl)c(Cl)c2)CCC1
400
CCN(CC)C(=O)C1=C(c2ccc(Cl)c(Cl)c2)CCC1
2.2

## Task // lookup Ratio Ki for `COC(=O)C1=C(c2ccc(Cl)c(Cl)c2)CCC1`
## Result 6

## Task Thanks! And `O=C(OCCO)C1=C(c2ccc(Cl)c(Cl)c2)CCC1` ?
## Result 30

## Task Consider next the compound `O=C(OCc1cccs1)C1=C(c2ccc(Cl)c(Cl)c2)CCC1` in the same way.
## Result 110

## Task Here is the next compound: `CONC(=O)C1=C(c2ccc(Cl)c(Cl)c2)CCC1`
## Result 11

====

- Tgt: Sodium-dependent dopamine transporter (Homo sapiens, UniProt Q01959)
- Sequence (Q01959 whole entry): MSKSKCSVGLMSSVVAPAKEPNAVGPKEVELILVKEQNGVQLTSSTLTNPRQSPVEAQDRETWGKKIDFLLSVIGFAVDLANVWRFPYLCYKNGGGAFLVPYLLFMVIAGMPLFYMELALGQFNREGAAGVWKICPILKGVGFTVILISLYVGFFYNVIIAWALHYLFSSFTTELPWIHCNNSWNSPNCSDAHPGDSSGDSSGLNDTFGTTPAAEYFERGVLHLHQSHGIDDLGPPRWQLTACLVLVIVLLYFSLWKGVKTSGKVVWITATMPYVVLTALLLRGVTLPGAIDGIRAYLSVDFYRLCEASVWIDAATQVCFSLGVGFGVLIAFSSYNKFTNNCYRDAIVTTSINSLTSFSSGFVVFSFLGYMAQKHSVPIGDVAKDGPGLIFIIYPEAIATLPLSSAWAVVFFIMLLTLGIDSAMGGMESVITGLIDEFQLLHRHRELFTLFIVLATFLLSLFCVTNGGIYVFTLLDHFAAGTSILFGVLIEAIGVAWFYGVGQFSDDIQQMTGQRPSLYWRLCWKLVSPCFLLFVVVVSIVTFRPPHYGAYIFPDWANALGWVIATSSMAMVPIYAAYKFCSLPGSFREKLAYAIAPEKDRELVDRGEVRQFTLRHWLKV
- Test: Displacement of [125I]RTI55 from human DAT transfected in COS1 cells
Reported values of pKi for individual entries
Hey, just a heads up that pKi is the negative log base 10 of the concentration in molar.

Completed entries (count: 3):
O=C(NCCF)C1=C(c2ccc(Cl)c(Cl)c2)CCC1
7.15
O=C(OCCO)C1=C(c2ccc(Cl)c(Cl)c2)CCC1
6.52
O=C(OC1CCCCC1)C1=C(c2ccc(Cl)c(Cl)c2)CCC1
4.92

Pending compound:
## Task Identify the measured pKi of `Cc1cccc(OC(=O)C2=C(c3ccc(Cl)c(Cl)c3)CCC2)c1` for Sodium-dependent dopamine transporter (Homo sapiens, UniProt Q01959).
## Result 7.22

====

- Organism: Homo sapiens
- Test: Selectivity for human DAT over human SERT
Attribute: Ratio Ki

Examples with their reported Ratio Ki follow.
O=C(OC1CCCCC1)C1=C(c2ccc(Cl)c(Cl)c2)CCC1
> 83
COC(=O)C1=C(c2ccc(Cl)c(Cl)c2)CCC1
410
O=C(NC1CCC1)C1=C(c2ccc(Cl)c(Cl)c2)CCC1
> 110

Consider the additional compound presented here.
## Task So what does the record say about Ratio Ki for `O=C(C1=C(c2ccc(Cl)c(Cl)c2)CCC1)N1CCOCC1` ?
## Result > 45

====

# Ki per entry
- Tgt: UniProt P31645
- Test: Displacement of [125I]RTI55 from human SERT transfected in COS1 cells

O=C(OC1CCCCC1)C1=C(c2ccc(Cl)c(Cl)c2)CCC1
> 1 mM
O=C(OCC(F)(F)F)C1=C(c2ccc(Cl)c(Cl)c2)CCC1
> 1 mM

From here, focus on the item given below.
## Task Need Ki, item `O=C(C1=C(c2ccc(Cl)c(Cl)c2)CCC1)N1CCOCC1`
## Result > 0.5 mM

====

- Tgt: Sodium-dependent serotonin transporter (Homo sapiens, UniProt P31645)
- Test: Displacement of [125I]RTI55 from human SERT transfected in COS1 cells
Metric: Ki

Solved entries (count: 5):
Cc1ccccc1OC(=O)C1=C(c2ccc(Cl)c(Cl)c2)CCC1
> 500 µM
Cc1cccc(OC(=O)C2=C(c3ccc(Cl)c(Cl)c3)CCC2)c1
> 1000 µM
O=C(NC1CCC1)C1=C(c2ccc(Cl)c(Cl)c2)CCC1
> 1000 µM
O=C(NCCF)C1=C(c2ccc(Cl)c(Cl)c2)CCC1
> 500 µM
CONC(=O)C1=C(c2ccc(Cl)c(Cl)c2)CCC1
> 500 µM

## Task Please report the recorded Ki for `O=C(Oc1ccccc1)C1=C(c2ccc(Cl)c(Cl)c2)CCC1` .
## Result > 500 µM

====

- Tgt: UniProt P23975
- Test: Displacement of [125I]RTI55 from human NET transfected in COS1 cells
- Type: cell-based, COS-1
pKi: −log10 of the molar value.
Label scheme for pKi: lower than 4 is no, 4 and above is yes.

Worked set:
Cc1cccc(OC(=O)C2=C(c3ccc(Cl)c(Cl)c3)CCC2)c1
no
O=C(C1=C(c2ccc(Cl)c(Cl)c2)CCC1)N1CCCC1
no
O=C(NCCF)C1=C(c2ccc(Cl)c(Cl)c2)CCC1
yes
Cc1ccccc1OC(=O)C1=C(c2ccc(Cl)c(Cl)c2)CCC1
yes
CCN(CC)C(=O)C1=C(c2ccc(Cl)c(Cl)c2)CCC1
no

## Task Answer whether pKi of `O=C(OCCF)C1=C(c2ccc(Cl)c(Cl)c2)CCC1` is greater than or equal to 4.
## Result yes

====

- Tgt: UniProt Q01959
- Test: Displacement of [125I]RTI55 from human DAT transfected in COS1 cells
This section presents compounds with their documented log10 of Ki values.
Use the decimal logarithm of Ki (nM).

Past entries and their recorded results:
CCN(CC)C(=O)C1=C(c2ccc(Cl)c(Cl)c2)CCC1
4.97
CC(C)OC(=O)C1=C(c2ccc(Cl)c(Cl)c2)CCC1
3.41
O=C(NCc1ccco1)C1=C(c2ccc(Cl)c(Cl)c2)CCC1
1.48
O=C(NC1CCC1)C1=C(c2ccc(Cl)c(Cl)c2)CCC1
3.95
CON(C)C(=O)C1=C(c2ccc(Cl)c(Cl)c2)CCC1
3.81

## Task Name the reported log10 of Ki value associated with the compound `O=C(C1=C(c2ccc(Cl)c(Cl)c2)CCC1)N1CCCC1`
## Result 4.76

## Task Please do the same for `O=C(OCCF)C1=C(c2ccc(Cl)c(Cl)c2)CCC1` as well.
## Result 2.70

## Task Please do the same for `Cc1ccccc1OC(=O)C1=C(c2ccc(Cl)c(Cl)c2)CCC1` as well.
## Result 2.34

## Task Another compound: `O=C(NCc1cccs1)C1=C(c2ccc(Cl)c(Cl)c2)CCC1`
## Result 2.15

## Task What do you have for `O=C(Oc1ccccc1)C1=C(c2ccc(Cl)c(Cl)c2)CCC1` ?
## Result 2.23

## Task Also, `CONC(=O)C1=C(c2ccc(Cl)c(Cl)c2)CCC1` please.
## Result 2.92

Source: ChEMBL document CHEMBL1140483
